# Test system: HL-60
# experimentalDetails: NCI tumour cell line growth inhibition, 48 h
Calls of active or inactive are those of the source. No stated cut-off is given here; in the data, active = GI50 up to about 1.1 µM and inactive = higher.
parameter: GI50

Prompt: I'd like to know its GI50. The molecule in question is "COc1ccccc1NC(=O)C1=C(C)NC(C)=C(C(=O)Nc2ccccc2OC)C1c1cccc2c1OCO2"
Response: 41.2 µM (inactive)

Prompt: GI50 for CC(=O)N1C(Nc2ccccc2)CCN1c1ccccc1 (stereo not given) ?
Response: 5.08 µM (inactive)

Prompt: Using the record for "CC(C)=CC(=O)c1[nH]c2ccccc2c1CC(=O)NCCc1c[nH]cn1" , report its GI50.
Response: > 100 µM (inactive)

Prompt: # GI50 lookup, item "CC1=CC(=O)/C(=C/NC(=S)NCc2ccccc2)C(=O)O1"
Response: 75.3 µM (inactive)

Prompt: Requested read-out: GI50. Entry: "CCCCCCNCCCNc1c2ccccc2nc2cccc([N+](=O)[O-])c12"
Response: 0.0151 µM (active)

Prompt: What measured GI50 goes with O=C1C(c2ccccc2)=C(c2ccccc2)C(c2ccccc2)/C1=C1\C(=O)C(c2ccccc2)=C(c2ccccc2)C1c1ccccc1 (stereo not given) ?
Response: > 100 µM (inactive)

Prompt: Fill in the blank: the reported GI50 of "O=c1cc(-c2ccccc2)nc(-n2[nH]c3c(c2=O)CCCC3)[nH]1" is ____.
Response: 2.73 µM (inactive)

Prompt: GI50 for "CCN(CC)COC(=S)S" ?
Response: < 0.01 µM (active)

Prompt: # query: GI50 of entry "COc1cc(/C=C(\C#N)C(N)=C(C#N)C#N)cc(O)c1O"
Response: 26.9 µM (inactive)

Prompt: Form field: reported GI50 of "COc1ccc(N2C(=O)/C(=C(\C)c3cc4ccccc4oc3=O)N=C2c2cc([N+](=O)[O-])ccc2Cl)cc1"
Response: 22.9 µM (inactive)

Prompt: Recorded GI50 of CCOC(=O)C(C)c1cc(C2(C)OCCO2)c(C)o1 (stereo not given) , please.
Response: > 100 µM (inactive)

Prompt: Please give the measured GI50 for this molecule: COc1cc2cc(C(=O)N3CC(CCl)c4ccc([N+](C)(C)Cc5ccccc5[N+](=O)[O-])cc43)[nH]c2c(OC)c1OC (stereo not given)
Response: 2.77 µM (inactive)

Prompt: Return reported GI50; argument: CN(N=O)C(=O)NC(CCCCNC(=O)OCc1ccccc1)C(=O)OCc1ccccc1 (stereo not given)
Response: 25.2 µM (inactive)

Prompt: Look at this molecule and give its reported GI50. "CCOC(=O)C1(Br)S(=O)(=O)OCCOS1(=O)=O"
Response: > 100 µM (inactive)

Prompt: Find the recorded GI50 belonging to COC(=O)C(/C(=N/N)C(=O)Nc1ccc(C)c(C)c1)c1nc2ccc(Cl)cc2nc1O (stereo not given) and report it.
Response: > 100 µM (inactive)

Prompt: Record request: GI50 value, item "C[C@]12CC/C(=N\O)C=C1CC[C@@H]1[C@@H]2CC[C@]2(C)C(=N/O)/C(=C/c3ccncc3)C[C@@H]12"
Response: 0.1 µM (active)

Prompt: So what's the measured GI50 for this one? Nc1nccc2c1ncn2C1C=C(CO)C(O)C1O (stereo not given)
Response: 1.82 µM (inactive)

Prompt: Given C=C1C(=O)OC2/C=C(\COC(C)=O)CCC(OC(C)=O)C3=CC(OC3=O)C12 (stereo not given) , state its recorded GI50.
Response: 2.23 µM (inactive)

Prompt: Record request: GI50 value, item "O=[N+]([O-])c1ccc2c(/N=N/c3ccc4ccccc4c3O)c(O)cc(S(=O)(=O)O)c2c1"
Response: 9.06 µM (inactive)

Prompt: Quick check: GI50 of COC1CC(O[C@H]2CC[C@@]3(C)C(=CCC4(O)C3CCC35C(=O)OC6(C)O[C@@]43CCC65)C2)OC(C)C1O (stereo not given in full) ?
Response: > 100 µM (inactive)

---

# Test system: HCT-15
parameter: GI50 (µM)
Answer format: numeric, µM implied, no suffix.

Prompt: Entry "C=C(C)[C@@]1(O)O[C@H]2C[C@@]3(C)OC(=CC3=O)/C(C)=C\[C@@H]3OC(=O)[C@@]1(C)[C@H]32" has what GI50?
Response: 9.25

Prompt: // query GI50 value for entry "[O-][n+]1ccc(NO)c2ccccc21"
Response: 1.75

Prompt: Can you look up the measured GI50 of "Sc1nnc(C23CC4CC(CC(C4)C2)C3)n1-c1ccc(Cl)cc1" for me?
Response: 7.83

Prompt: Any idea what its GI50 is? The compound is CC1OC(OC2C(OC(=O)[C@]34CCC(C)(C)C[C@H]3C3=CC[C@@H]5[C@@]6(C)CC[C@H](OC7OC(C(=O)O)C(O)C(O)C7O)C(C)(C)[C@@H]6CC[C@@]5(C)[C@]3(C)C[C@H]4O)OCC(O)C2O)C(O)C(O)C1OC1OCC(OC2OCC(O)C(O)C2O)C(O)C1O (stereo partly specified)
Response: 14.7

Prompt: Which GI50 value is on record for CC(C)(C)C1CCC2c3c([nH]c4ccccc34)C3C(=O)N(c4cccc(Cl)c4)C(=O)C3C2C1 (stereo unspecified) ?
Response: 14.5

Prompt: Report GI50 for "O=c1c2ccccc2[nH]c(=S)n1-c1ccc(/N=N/c2cccc3c(O)cccc23)cc1" please.
Response: 38.5

Prompt: Entry "C[C@H]1O[C@@H](O[C@H]2[C@@H](O)C[C@H](O[C@H]3[C@@H](O)C[C@H](O[C@H]4CC[C@@]5(C)[C@H](CC[C@@H]6[C@@H]5CC[C@]5(C)[C@@H](C7=CC(=O)OC7)CC[C@]65O)C4)O[C@@H]3C)O[C@@H]2C)C[C@H](O)[C@@H]1O" : reported GI50 = ?
Response: 0.0305

Prompt: Which GI50 value is on record for "CC(=O)Nc1ccc(SC#N)c2c(NC(C)=O)cccc12" ?
Response: 53.8

Prompt: Query (compound): CC(=O)c1ccc2c(c1)CC1(C2)Cc2ccccc2C1=O (stereo unspecified) ; field requested: GI50
Response: 51.5

Prompt: Dear colleague, I am looking for the recorded GI50 of the following compound: "O=[N+]([O-])c1cc(Cc2cc([N+](=O)[O-])c3cccnc3c2O)c(O)c2ncccc12"
Response: 4.23

Prompt: Which GI50 value belongs to CCCCCCCCCCOC1C(C(O)CNCCCN(C)C)OC2OC3(CCCCC3)OC21 (stereo unspecified) ?
Response: 1.69

Prompt: Give its GI50 value. Item: OCC(O)C(O)c1nn(-c2ccccc2)c2nc3cc(Cl)c(Cl)cc3nc12 (stereo unspecified)
Response: 23.6

Prompt: Need GI50 of "O=c1cc(-c2ccccc2)nc(-n2[nH]c3c(c2=O)CCCC3)[nH]1" , thanks.
Response: 1.7

Prompt: What value of GI50 has been recorded for this entry: "COc1ccc(/N=N/c2ccc3oc(=O)c(C(=O)Nc4ccc(OC)cc4)cc3c2)cc1"
Response: 6.79

Prompt: So what does the record say about GI50 for CC(C)(C)C1C=C(Sc2ccccc2)C(=O)O1 (stereo unspecified) ?
Response: 43.3

Prompt: Data request, read-out GI50, for "O=C(/C=C/c1ccc(OCC(=O)N2CCN(c3ccccc3)CC2)cc1)c1ccccc1"
Response: 7.5

Prompt: Given the entry "Clc1ccc(-c2c(C3=NCCCN3)nnn2-c2ccccc2)cc1" , report its measured GI50.
Response: 43.6

Prompt: Returns the measured GI50 for the input compound. Input: "Cc1cc(S(=O)(=O)Nc2nc3cc(-c4ccc(Cl)cc4)sc3c(=O)n2N)c(S)cc1Cl"
Response: 45.6

Prompt: Query (compound): O=C1CSC(c2ccc(Cl)cc2)N1c1ccc(-c2ccc(-n3c(-c4ccccc4)nc4ccccc4c3=O)cc2)cc1 (stereo unspecified) ; field requested: GI50
Response: 33.2

Prompt: Could you tell me which GI50 is on file for CC1OC(OC2C(O[C@H]3CC[C@@]4(C)[C@@H](CC[C@@H]5[C@@H]4CC[C@]4(C)[C@@H]6[C@H](C[C@@H]54)O[C@]4(CC[C@@H](C)CO4)[C@H]6C)C3)OC(CO)C(OC3OC(CO)C(O)C(OC4OCC(O)C(O)C4O)C3OC3OCC(O)C(O)C3O)C2O)C(O)C(O)C1O (stereo partly specified) ?
Response: 1.21

---

# System: K562
# experimentalDetails: NCI tumour cell line growth inhibition, 48 h
Calls of active or inactive are those of the source. Rule as the data show it: active = GI50 up to about 1.1 µM and inactive = higher.
Respond with a class label; see 1 (active), -1 (inactive)

Prompt: # lookup: test call for "CCc1cccc2c3c([nH]c12)-c1ccccc1NC(=O)C3"
Response: -1

Prompt: I would be grateful if you could indicate the recorded call for "Cn1cc2ccccc2c1-c1nc(F)nc(F)n1" .
Response: -1

Prompt: Tell me the assay call for CC1CCC2C(C)C(OC(=O)CCC(=O)O)OC3OC4(C)CCC1C32OO4 (stereo not drawn) please.
Response: -1

Prompt: Hi, do you know how CC1CCCCN1CC(=O)c1ccc2c(c1)Sc1ccccc1O2 (stereo not drawn) came out in this test?
Response: -1

Prompt: Could you please tell me the result logged for Cc1ccc(C(=O)N2c3ccccc3N(C)n3cccc3C2CC(=O)O)cc1 (stereo not drawn) in this assay?
Response: -1

Prompt: Please indicate how the test categorized "CCOC(=O)c1c(N2CCCC2)[nH]c(=O)c(C(c2ccc(N(C)C)cc2)c2c(O)c(C(=O)OCC)c(N3CCCC3)[nH]c2=O)c1O" .
Response: -1

Prompt: What did the test return for CC1CCCC2(O1)OC1CC(=O)OC1C1=C2C(=O)c2ccccc2C1=O (stereo not drawn) ?
Response: 1

Prompt: For CCC1(CN(C)C)CC/C(=C\c2ccc(OC)cc2)C1=O (stereo not drawn) , which call appears in the assay record?
Response: -1

Prompt: Which outcome was entered for the molecule "Clc1ccc(-c2c(C3=NCCCN3)nnn2-c2ccccc2)cc1" in this test?
Response: -1

Prompt: Kindly provide the recorded test outcome for the following molecule: "Cc1c(C)c(CC(=O)N2CC2)c(C)c(C)c1CC(=O)N1CC1"
Response: -1

Prompt: Short answer needed: outcome of this test for "CC(=O)OCCOCNC(=S)N/N=C/c1ccc([N+](=O)[O-])s1" ?
Response: -1

Prompt: Each molecule tested received a call. Report the one for "Sc1nnc(C23CC4CC(CC(C4)C2)C3)n1-c1ccc(Cl)cc1" .
Response: -1

Prompt: How was O=c1[nH]c(=O)n(C2C(CO)OC(CO)C2O)cc1F (stereo not drawn) classified in this test?
Response: -1

Prompt: Hey, what did the test say about C[C@H]1[C@H](C)N(Cc2ccccc2)P(=O)(C(O)/C=C/c2ccccc2)N1Cc1ccccc1 (stereo partly drawn) ?
Response: -1

Prompt: Would you mind telling me which call this test gave "O=C1/C(=C/c2ccc(O)cc2)CCc2ccc([N+](=O)[O-])cc21" ?
Response: -1

Prompt: Hello, I am checking results. What call was entered for "CC(C)C(=O)N1Cc2cc(Cl)cc(Cl)c2OC(=O)c2ccccc21" ?
Response: -1

Prompt: Query: recorded result category for "NC(=O)C(=CNC(=S)Nc1cccc(C(F)(F)F)c1)C(N)=O" in this test
Response: -1

Prompt: Entry "CC1(C)C/C(=N/O)c2c(nc3ccc4ccccc4c3c2-c2ccc(Cl)cc2)C1" : call = ?
Response: -1

Prompt: Lab log entry: N#Cc1cc2c(n(C3OC(CO)C(O)C(O)C3O)c1=S)CCC2 (stereo not drawn) — outcome as called in the assay?
Response: -1

Prompt: Test call for this molecule, please: "O=C1C2=C(C3=NCCc4c[nH]c1c43)c1c(cc(Br)c(O)c1Br)CCN2"
Response: -1

Prompt: Answer briefly: the call reported for "CCOC(=O)c1ccc(N(CCOS(C)(=O)=O)CCOS(C)(=O)=O)cc1" in this assay.
Response: -1

Prompt: Outcome logged for CC1OC(OC2C(O[C@H]3CC[C@@]4(C)C(=CC[C@H]5[C@@H]6C[C@@H]7O[C@]8(CC[C@H](C)CN8)[C@@H](C)[C@@H]7[C@@]6(C)CC[C@@H]54)C3)OC(CO)C(O)C2OC2OC(CO)C(O)C(O)C2O)C(O)C(O)C1O (stereo partly drawn) in this assay:
Response: -1

Prompt: For O=C(O)CC1NC(/C(=C/c2ccccc2)NC(=O)c2ccccc2)OC1=O (stereo not drawn) , which call appears in the assay record?
Response: -1
